# Test system: Escherichia coli TOP10;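 note: peptides expressed intracellularly from a pBAD plasmid library in pooled LB shake-flask culture, induced with 0.3% L-arabinose, DNA abundance read by NGS, three biological replicates, DESeq2 with apeglm shrinkage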
# assay: shrunken log2 fold change of peptide-encoding DNA abundance (4.5 h post-induction vs induction); higher = less antimicrobial activity (less host growth inhibition)
# assay.context: time post-induction: 4.5 h; library: site-saturation at positions 5, 18, 19, 20
Form field: shrunken log2 fold change (one value per entry).
Form field (numeric): enter value without unit.

As a guide, the following entries are already answered.
>>> print(df.to_string())
             sequence_code  value
0  RRIRFRPPRLPRPRPRPERVPRP  0.094
1  RRIRTRPPRLPRPRPRPHTGPRP  -0.34

[ask] Identify measured shrunken log2 fold change corresponding to RRIRHRPPRLPRPRPRPRAWPRP
[reply] 0.0709

[ask] Identify measured shrunken log2 fold change corresponding to RRIRNRPPRLPRPRPRPWPTPRP
[reply] 0.216

[ask] Identify measured shrunken log2 fold change corresponding to RRIRKRPPRLPRPRPRPIWCPRP
[reply] -0.0231

[ask] Identify measured shrunken log2 fold change corresponding to RRIRTRPPRLPRPRPRPHTDPRP
[reply] -0.401

[ask] Identify measured shrunken log2 fold change corresponding to RRIRDRPPRLPRPRPRPQMHPRP
[reply] 0.156

[ask] Identify measured shrunken log2 fold change corresponding to RRIRTRPPRLPRPRPRPHCKPRP
[reply] -0.222

[ask] Identify measured shrunken log2 fold change corresponding to RRIRKRPPRLPRPRPRPNMVPRP
[reply] 0.114

[ask] Identify measured shrunken log2 fold change corresponding to RRIRGRPPRLPRPRPRPEAQPRP
[reply] 1.61

[ask] Identify measured shrunken log2 fold change corresponding to RRIRTRPPRLPRPRPRPGWGPRP
[reply] 0.343
